Provide the reported TGI of each item.
test system: PC-3 prostate; experiment: NCI tumour cell line growth inhibition, 48 h

Request: For the compound "C[C@]12CC/C(=N\O)C=C1CC[C@@H]1[C@@H]2CC[C@]2(C)C(=N/O)/C(=C/c3ccncc3)C[C@@H]12" , what TGI is on record?
Response: 62.6 µM

Request: Now this one: "CCOC(=O)c1csc(-c2nc(CCNC(=O)c3ccccc3)sc2Cl)n1"
Response: > 100 µM

Request: Now this one: "O=c1oc2ccccc2n1CCCn1c(=O)oc2ccccc21"
Response: > 100 µM

----------
tested on: MDA-MB-435
Choose the fitting class; nothing outside 1 (active), 0 (inactive) is accepted.

Request: // return assay outcome for "Cc1ccccc1C[P+](c1ccccc1)(c1ccccc1)c1ccccc1"
Response: 0

Request: Now this one: "O=C(Nc1ccc(N2CCNCC2)cn1)c1[nH]ncc1Nc1ncnc2sccc12"
Response: 0

Request: Now this one: "CCN(CC)c1ccc(/C=N/NC(=O)c2ccccc2Nc2ccnc(C(F)(F)F)c2)c(O)c1"
Response: 0

Request: Now this one: "CN1CCN(Cc2ccc(NC(=O)c3cccc(C#Cc4c(N)ncc5ccc(F)cc45)c3)cc2C(F)(F)F)CC1"
Response: 0

Request: Now this one: "Cc1ccc(-n2c3c(c4c(CN)c(O)ccc42)CCc2ccccc2C3=O)cc1"
Response: 0

Request: Now this one: COC1C(O)CC(OC2CC(OC3CC(O[C@@H]4C(=O)c5c(cc6cc(OC7CC(OC8CC(O)C(O)C(C)O8)C(O)C(C)O7)c(C)c(O)c6c5O)CC4[C@H](OC)[C@@H](O)C(C)=O)OC(C)C3O)OC(C)C2O)OC1C (some centres undefined)
Response: 1

Request: Now this one: Cc1ccc2c(c1)-c1oc(=O)c(-c3cc4ccccc4oc3=O)cc1C(O)O2 (centres undefined)
Response: 0

Request: Now this one: "C#CCN(Cc1nc2cc(C(F)(F)F)ccc2nc1-c1ccccc1)c1ccc(F)cc1"
Response: 0

Request: Now this one: "COC(=O)CCCNC(=O)C(=O)c1c(O)c(O)c(C(C)C)c2cc(C)c(-c3c(C)cc4c(C(C)C)c(O)c(O)c(C(=O)C(=O)NCCCC(=O)OC)c4c3O)c(O)c12"
Response: 0

----------
system: HT29 colon; experiment: NCI tumour cell line growth inhibition, 48 h
Provide the reported TGI of each item.

Request: For the compound O=C1CCC(N2C(=O)c3cccc(NCCOCCOCCNC(=O)c4cc5c(o4)C(=O)c4ccccc4C5=O)c3C2=O)C(=O)N1 (stereo not given) , what TGI is on record?
Response: > 100 µM

Request: Now this one: "CN(/N=C/c1ccccc1C(=O)O)C1=NCCCCN1"
Response: > 100 µM

Request: Now this one: "C[C@]12CC/C(=N\O)C=C1CC[C@@H]1[C@@H]2CC[C@]2(C)C(=N/O)/C(=C/c3ccncc3)C[C@@H]12"
Response: 42.1 µM

Request: Now this one: CC(=O)OC1(C#N)CC2OC1C1N=NN(C(=O)OC(C)(C)C)C21 (stereo not given)
Response: > 100 µM

Request: Now this one: OC1(C2(c3ccc(Cl)cc3)CCCC2)c2ccccc2C2=NCCN21 (stereo not given)
Response: 23.5 µM

Request: Now this one: COc1c(N2CCN(CN3C(=O)C(=O)c4ccccc43)C(C)C2)c(F)cc2c(=O)c(C(=O)O)cn(C3CC3)c12 (stereo not given)
Response: > 100 µM

Request: Now this one: "CSS(C)(=O)=O"
Response: > 100 µM

Request: Now this one: COc1ccc(-c2nc(SC)n(C3OC(COC(C)=O)C(OC(C)=O)C(OC(C)=O)C3OC(C)=O)c(=O)c2C#N)cc1 (stereo not given)
Response: > 100 µM

Request: Now this one: "N#Cc1c2ccc([N+](=O)[O-])cc2c(=O)n2c1sc1ccccc12"
Response: > 100 µM

Request: Now this one: "COc1ccc(NC(=S)Nc2c(C)n(C)n(-c3ccccc3)c2=O)cc1"
Response: > 100 µM
